Tested on: MOLM-13 cells
Assay: MOLM-13 Cellular Assay
Format: cell-based
Conditions: Homo sapiens, 72 hours exposure, cell viability by CellTiter-Glo
pEC50: −log10 of the molar value.
measured quantity: pEC50

compound	reported result
CCn1c(COC)nn(-c2nc(O[C@@H](C)C(F)(F)F)c(C(=O)Nc3c(F)cccc3Cl)cc2F)c1=O [Example 14]	9.70
CCn1c(CO)nn(-c2nc(O[C@@H](C)C(F)(F)F)c(C(=O)Nc3cc(C)cnc3OC)cc2F)c1=O [Example 41]	7.28

I: Cc1ccnc(Cl)c1NC(=O)c1cc(F)c(-n2nc(CF)n(CCO)c2=O)nc1O[C@@H](C)C(F)(F)F [Example 116]
II: CCn1c(CO)nn(-c2nc(O[C@@H](C)C(F)(F)F)c(C(=O)Nc3c(OC)cc(C)nc3C)cc2F)c1=O [Example 103]
Task item: Exercise: compare I and II ; which one has the greater pEC50? I would appreciate it if you answered with the label of your choice.
Reply: I
